Ref: patent US11077090B2

Tested on: compound-treated mice
METHOD_NOTES: Neuropharmacological assay (SmartCube): behavioral activity signature and minimal effective dose
Format: in vivo
CONDITION_DESCRIPTION: i.p. 15 min before test, most efficacious dose(s)
REPORTED_ENDPOINT: AG: analgesic (probability of activity signature)

Worked set:
COc1cccc2c1COCC2N.Cl (stereo not shown) ... + (LOQ ≤ + <5%)
C[C@H]1OCc2cccc(Cl)c2[C@@H]1N.Cl ... ++ (5% ≤ ++ <25%)
Cc1cccc2c1[C@@H](C)OC[C@H]2N (single isomer, unassigned) ... + (LOQ ≤ + <5%)
COc1ccc2c(c1)[C@@H](N)[C@@H](C)OC2 (single isomer, unassigned) ... ++ (5% ≤ ++ <25%)
N[C@@H]1COCc2ccc(Cl)c(Cl)c21 (single isomer, unassigned) ... ++ (5% ≤ ++ <25%)
Cl.NC1COCCc2ccc3ccccc3c21 (stereo not shown) [Example 35] ... ++ (5% ≤ ++ <25%)

// lookup AG: analgesic (probability of activity signature) for CC(C)c1cccc2c1COCC2N.Cl (stereo not shown) +++ (25% ≤ +++ <50%)

// lookup AG: analgesic (probability of activity signature) for Cl.NC1COCc2ccc3c(c21)C1CCC3C1 (single isomer, unassigned) [Example 161] ++ (5% ≤ ++ <25%)

* * *

Tested on: compound-treated mice
METHOD_NOTES: Neuropharmacological assay (SmartCube): behavioral activity signature and minimal effective dose
Type: in vivo
CONDITION_DESCRIPTION: i.p. 15 min before test, most efficacious dose(s)
REPORTED_ENDPOINT: CE: cognitive enhancer (probability of activity signature)

Worked set:
C[C@@H]1OC[C@@H](N)c2ccccc21.Cl (relative stereo) [Example 105] ... ++ (5% ≤ ++ <25%)
C[C@H]1OC[C@@H](N)c2cc(Cl)ccc21.Cl [Example 203] ... ++ (5% ≤ ++ <25%)
N[C@@H]1COCc2ccc(F)cc21 (single isomer, unassigned) [Example 113] ... ++ (5% ≤ ++ <25%)
Cc1ccc2c(c1)CCOCC2N.Cl (stereo not drawn) [Example 36] ... +++ (25% ≤ +++ <50%)
Cc1ccc2c(c1C)[C@@H](N)COC2 [Example 136] ... ++ (5% ≤ ++ <25%)
C[C@@H]1OCc2ccccc2[C@H]1N.Cl (relative stereo) [Example 73] ... ++ (5% ≤ ++ <25%)
Cc1ccc2c(c1)[C@H](C)OC[C@H]2N [Example 222] ... + (LOQ ≤ + <5%)
CN[C@H]1COCc2ccc(C)cc21 [Example 142] ... ++ (5% ≤ ++ <25%)
CC[C@H]1OCc2ccccc2[C@@H]1N.Cl (single isomer, unassigned) [Example 199] ... ++ (5% ≤ ++ <25%)
Cc1cc(C)c2c(c1)[C@@H](N)COC2 (single isomer, unassigned) [Example 126] ... ++ (5% ≤ ++ <25%)

Give recorded CE: cognitive enhancer (probability of activity signature) with compound-treated mice for the following compound: CC[C@H]1OCc2ccc(F)cc2[C@H]1N [Example 188] + (LOQ ≤ + <5%)

Give recorded CE: cognitive enhancer (probability of activity signature) with compound-treated mice for the following compound: C[C@@H]1OCc2ccc3ccccc3c2[C@@H]1N.Cl (single isomer, unassigned) [Example 91] ++ (5% ≤ ++ <25%)

Give recorded CE: cognitive enhancer (probability of activity signature) with compound-treated mice for the following compound: CC[C@@H]1OCc2ccccc2[C@H]1N (single isomer, unassigned) [Example 195] ++ (5% ≤ ++ <25%)

Give recorded CE: cognitive enhancer (probability of activity signature) with compound-treated mice for the following compound: CC(C)c1cccc2c1COCC2N.Cl (stereo not drawn) [Example 18] ++ (5% ≤ ++ <25%)
